Cited source: PubChem BioAssay (NCI)

- System: MDA-MB-468 breast
- assay-explanation: NCI-60 one-dose screen, 48 h (100 = growth as untreated, 0 = no growth, -100 = all killed)
- conditions: 10 µM unless noted
About 83,000 compounds went through this panel and 20% of them were active in at least one assay; those are over-represented in the sample as a whole.
Classification field: enter Criterion met for growth values not below 80%, Criterion not met for values below it.

Illustrative cases are given below, each with its answer.
1) CCOC(=O)c1cnn(CC(C)O)c1NC(=O)NCc1ccccc1C(F)(F)F (centres undefined) = Criterion met
2) O=C1NC(=O)C(=Cc2cn(Cc3cn(Cc4ccc(Cl)cc4Cl)nn3)c3ccccc23)C(=O)N1 = Criterion not met
3) COc1cc(NCCCN(CC(C)C)C2CCCC2)c2ncccc2c1 = Criterion not met
4) COc1cccc2nc3n(c12)C(c1c(F)cccc1F)SC3 (centres undefined) = Criterion met
5) CCCCC[C@H]1C/C=C2/C(=O)C(Cl)=C[C@@H]2C/C=C\CCCC(=O)O1 = Criterion not met
6) O=C(CSc1nc2ccccc2[nH]1)Nc1cccc(Cl)c1 = Criterion met

// switching to the query compound
// inclusive: growth at least 80%? input: CC(=O)c1cc2c(c(O)c1C)C(=O)C(=O)c1c(O)cccc1-2
Criterion not met

* * *

- Tested on: SN12C renal
- assay-explanation: NCI-60 one-dose screen, 48 h
- conditions: 10 µM
This is part of a sample that, as a whole, favours compounds with a hit. Of some 83,000 tested, about 20% had one in any assay. The source made the active and inactive calls. How the source made its calls: active means growth percent below 10; inactive means the rest.
Hi! Could you answer with just one of these? t for active, f for inactive

Illustrative cases are given below, each with its answer.
1) O=C(c1ccc(Cl)cc1)C(c1c[nH]c2ccccc12)c1c[nH]c2ccccc12 = t
2) C#C[C@]1(O)CC[C@H]2[C@@H]3CC=C4c5sc(Nc6cc(C)cc(C)n6)nc5CC[C@]4(C)[C@H]3CC[C@@]21C = t
3) Cn1cc(-c2nc(N)nnc2-c2c[nH]c3ccccc23)c2cc(Br)cnc21 = f
4) O=C(Nc1ccc(OCc2ccc(Cl)cc2)cc1)Nc1ccc(Cl)c(C(F)(F)F)c1 = f

// switching to the query molecule
Field: outcome | Entry: Cn1cc(-c2cc(N)n3nc(-c4cn(C)c5ccccc45)cc3n2)c2cc(F)ccc21
t

* * *

- Tested on: MDA-MB-468 breast
- assay-explanation: NCI-60 one-dose screen, 48 h (100 = growth as untreated, 0 = no growth, -100 = all killed)
- conditions: 10 µM unless noted
About 83,000 compounds went through this panel and 20% of them were active in at least one assay; those are over-represented in the sample as a whole. Calls of active or inactive are those of the source. Rule for the calls: active = growth percent below 10; inactive = the rest.
quantity-name: growth

Here are 2 compounds together with their reported answers.
1. O=S(=O)(O)c1cc(O)c2c(N=Nc3ccc(Nc4ccccc4)c4c(S(=O)(=O)O)cccc34)cc(S(=O)(=O)O)cc2c1 = 103% (inactive)
2. CC[C@H](CC[C@@H](C)[C@H]1CC[C@H]2[C@@H]3CC[C@@H]4CC(=O)/C(=C\c5ccncc5)C[C@]4(C)[C@H]3CC[C@]12C)C(C)C = 105% (inactive)

Fill in: growth of c1csc(-c2cc(-c3cc(-c4cccs4)[nH]n3)n[nH]2)c1 is ___
77.3% (inactive)

Please answer likewise for c1cc(C2CCCCC2)ccc1-c1cnc2nonc2n1
2.69% (active)

Please answer likewise for COC1C(O)CC(OC2CC(OC3CC(O[C@@H]4C(=O)c5c(cc6cc(OC7CC(OC8CC(O)C(O)C(C)O8)C(O)C(C)O7)c(C)c(O)c6c5O)CC4[C@H](OC)C(=O)O)OC(C)C3O)OC(C)C2O)OC1C (stereo not given in full)
15.8% (inactive)
